Source listed as patent US20210079074A1.

Biological target: human MS4A4A (human, UniProt Q96JQ5 1-239)
Experiment: FACS, U937-huMS4A4A, 5 ug/ml
Below, each of the binders is paired with its reported MFI value.
MEASUREMENT_KIND: MFI

1) anti-MS4A4A antibody 4A-336 (antibody, human IgG1, V domains shown, humanized 4A-21; human IgG1/kappa) VH: QVQLVQSGSELKKPGASVKVSCKASGYIFTSYGLSWVRQAPGQGLEWMGWINTYSGVPTYAQGFTGRFVFSLDTSVSTAYLQISSLKAEDTAVYYCARSLVDYWGQGTLVTVSS VL: DVVMTQTPLSSPVTLGQPASISCKSSQSLLYSDGKTYLSWLQQRPGQPPRRLIYLVSKLDSGVPDRFSGSGAGTDFTLKISRVEAEDVGVYYCWQGIDFHQTFGGGTKVEIK = 309
2) anti-MS4A4A antibody 4A-334 (antibody, human IgG1, V domains shown, humanized 4A-21; human IgG1/kappa) VH: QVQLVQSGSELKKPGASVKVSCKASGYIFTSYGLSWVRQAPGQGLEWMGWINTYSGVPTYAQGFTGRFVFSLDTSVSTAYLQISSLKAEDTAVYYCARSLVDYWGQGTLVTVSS VL: DIVMTQTPLSSPVTLGQPASISCKSSQSLLYSDGKTYLSWLQQRPGQPPRLLIYLVSKLDSGVPDRFSGSGAGTDFTLKISRVEAEDVGVYYCWQGIDFHQTFGGGTKVEIK = 296
3) anti-MS4A4A antibody 4A-344 (antibody, human IgG1, V domains shown, humanized 4A-21; human IgG1/kappa) VH: QVQLVQSGAEVKKPGASVKVSCKASGYIFTSYGLSWVRQAPGQGLEWMGWINTYSGVPTYAQKFQGRVTMTRDTSTSTVYMELSSLRSEDTAVYYCARSLVDYWGQGTLVTVSS VL: DVVMTQTPLSLSVTPGQPASISCKSSQSLLYSDGKTYLSWYLQKPGQPPQRLIYLVSKLDSGVPDRFSGSGSGTDFTLKISRVEAEDVGVYYCWQGIDFHQTFGGGTKVEIK = 427
